Molecular target: T1, hGITR.mFc (human)
T1 construct: soluble dimeric construct with mouse Fc; also called dimeric human GITR
T1 chain: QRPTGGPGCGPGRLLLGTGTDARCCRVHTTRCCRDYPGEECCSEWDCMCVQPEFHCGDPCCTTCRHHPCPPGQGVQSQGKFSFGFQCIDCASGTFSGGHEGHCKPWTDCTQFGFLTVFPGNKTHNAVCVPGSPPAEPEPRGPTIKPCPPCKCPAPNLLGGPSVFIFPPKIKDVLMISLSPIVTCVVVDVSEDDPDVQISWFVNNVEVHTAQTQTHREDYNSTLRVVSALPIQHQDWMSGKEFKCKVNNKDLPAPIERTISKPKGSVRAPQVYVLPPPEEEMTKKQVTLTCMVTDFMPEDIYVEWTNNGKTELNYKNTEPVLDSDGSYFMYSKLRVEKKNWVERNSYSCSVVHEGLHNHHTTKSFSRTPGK
Experiment: SPR 37C, mAb capture
Here, each record is paired with measured t½ data.

{"binder": "H4H14516P (antibody, human IgG4, V domains shown, human IgG4 (H4H)) VH: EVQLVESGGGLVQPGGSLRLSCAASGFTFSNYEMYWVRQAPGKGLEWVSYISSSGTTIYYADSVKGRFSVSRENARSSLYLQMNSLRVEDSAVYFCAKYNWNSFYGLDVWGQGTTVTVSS VL: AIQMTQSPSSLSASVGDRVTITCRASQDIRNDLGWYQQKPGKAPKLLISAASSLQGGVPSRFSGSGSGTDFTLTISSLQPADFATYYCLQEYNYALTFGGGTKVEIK", "t½ [min]": 6.4}
{"binder": "H4H14521P (antibody, human IgG4, V domains shown, human IgG4 (H4H)) VH: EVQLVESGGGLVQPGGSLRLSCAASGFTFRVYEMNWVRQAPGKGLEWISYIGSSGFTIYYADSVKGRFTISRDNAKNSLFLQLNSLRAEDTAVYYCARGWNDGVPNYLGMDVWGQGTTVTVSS VL: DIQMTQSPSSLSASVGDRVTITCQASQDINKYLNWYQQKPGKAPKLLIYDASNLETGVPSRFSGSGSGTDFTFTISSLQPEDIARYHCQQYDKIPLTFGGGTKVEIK", "t½ [min]": 24.1}
